- Assayed System: Acetylcholinesterase (Electrophorus electricus)
- Measurement Notes: Inhibition of electric eel AChE using acetylthiocholine iodide as substrate preincubated with enzyme for 20 mins followed by substrate addition and measured after 20 mins by Ellman's method
- Design: concentration or dose not given beside the values
- Conditions: time 40.0 min
Active and inactive are the calls of the source. The calls are words filed in the database; no cut-off is given here.
Property Measured: inhibition

Past entries and their recorded results:
COc1ccc(C(C)=O)c(OC(=O)N2CCSC2)c1 : 44%
Cc1ccc(C(C)C)cc1OC(=O)N(C)Cc1ccc(Br)cc1 : 32%
COc1ccc(C(C)=O)c(OC(=O)N2CCCC2)c1 : 21%
C=CCc1ccc(OC(=O)N2CCCC2)c(OC)c1 : inactive
CNC(=O)Oc1cc(OC)ccc1C(C)=O : 23%

Give its inhibition value. Item: "C=CCc1ccc(OC(=O)NC)c(OC)c1"
42%

Param item = "COc1ccc(C(C)=O)c(OC(=O)N2CCc3cc(OC)c(OC)cc3C2)c1" ; retrieve measured inhibition.
inactive

Form field: reported inhibition of "C=CCc1ccc(OC(=O)N(C)C)c(OC)c1"
inactive

If you can, please state the reported inhibition value of "COc1ccc(C(C)=O)c(OC(=O)N(C)C)c1" .
8.3%

Look up inhibition: "C=CCc1ccc(OC(=O)N(C)CC)c(OC)c1"
69%

Could you share which inhibition value was measured for "COc1ccc(C(C)=O)c(OC(=O)N2CCC(Cc3ccccc3)CC2)c1" ?
43%

Request the reported inhibition associated with "CCN(Cc1ccc(Cl)cc1)C(=O)Oc1cc(OC)ccc1C(C)=O"
inactive

Param item = "C=CCc1ccc(OC(=O)N2CCc3ccccc3C2)c(OC)c1" ; retrieve measured inhibition.
65%

Can you share its inhibition? I mean this compound: "COc1ccc(C(C)=O)c(OC(=O)N(C)Cc2cccc(F)c2)c1"
20%

Bench note: what inhibition did "COc1ccc(C(C)=O)c(OC(=O)N2CCc3ccccc3C2)c1" show?
27%
